- subject of test: Neu5Ac(a2-3)Gal(b1-3)GlcNAc(b1-2)Man(a1-3)[GlcNAc(b1-4)][Neu5Ac(a2-3)Gal(b1-3)GlcNAc(b1-2)Man(a1-6)]Man(b1-4)GlcNAc(b1-4)GlcNAc
- assay procedure: glycan array binding signal (z-score within array); higher = stronger binding
- test settings: glycan notation: IUPAC condensed, linker removed
About 410 targets per protein were measured; listed, in parts, are those with the strongest signals and a random draw of the rest.
recorded metric: glycan array binding signal (z-score)

{"columns": ["binder", "recorded metric", "value observed"],
 "data": [
  ["ACA (Amaranthus caudatus) (protein) MAGLPVIMCLKSNNNQKYLRYQSDNIQQYGLLQFSADKILDPLAQFEVEPSKTYDGLVHIKSRYTNKYLVRWSPNHYWITASANEPDENKSNWACTLFKPLYVEEGNMKKVRLLHVQLGHYTQNYTVGGSFVSYLFAESSQIDTGSKDVFHVIDWKSIFQFPKRYVTFKGNNGKYLGVITINQLPCLQFGYDNLNDPKVAHEMFVTSNGTICIKSTYMNKFWRLSTDDWILVDGNDPRETNEAAALFRSDVHDFNVISLLNMQKTWFIKRFTSGKPGFINCMNAATQNVDETAILEIIELGSNN", "glycan array binding signal (z-score)", -0.413]
]}

Prompt: Any idea what its glycan array binding signal (z-score) is? The binder is ArathEULS3 TAP (Arabidopsis thaliana) (protein) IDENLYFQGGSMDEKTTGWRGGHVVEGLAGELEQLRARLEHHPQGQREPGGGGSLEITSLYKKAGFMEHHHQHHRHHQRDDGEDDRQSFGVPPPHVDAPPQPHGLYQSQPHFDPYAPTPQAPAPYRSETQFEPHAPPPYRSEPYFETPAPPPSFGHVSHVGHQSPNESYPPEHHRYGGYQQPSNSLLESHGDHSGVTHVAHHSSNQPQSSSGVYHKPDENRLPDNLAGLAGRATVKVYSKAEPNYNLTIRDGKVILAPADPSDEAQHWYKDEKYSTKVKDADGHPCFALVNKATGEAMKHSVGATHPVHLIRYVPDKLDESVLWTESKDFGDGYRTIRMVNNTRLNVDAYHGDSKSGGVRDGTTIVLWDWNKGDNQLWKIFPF
Completion: -1.32
